Reported values of CC50 for individual entries
method: Cytotoxicity against human Huh7ET cells by [3H]thymidine incorporation assay
Assay type: cell-based, Huh-7
Please state the figure in µM; there is no need to write the unit.

`COC(=O)N[C@H](C(=O)N1C[C@@H](C)C[C@H]1c1cn2cc(-c3cc4sc(-c5ccc6[nH]c([C@@H]7C[C@H](C)CN7C(=O)[C@@H](NC(=O)OC)C(C)C)nc6c5)cc4s3)ccc2n1)C(C)C` yielded CC50 of 8

`COC(=O)N[C@H](C(=O)N1C[C@@H](C)C[C@H]1c1nc2cc(-c3ccc(-c4ccc5oc([C@@H]6C[C@H](C)CN6C(=O)[C@@H](NC(=O)OC)C(C)C)nc5c4)cc3)ccc2o1)C(C)C` yielded CC50 of 7
